Quick reference for pKd among some binders
Target: T1, human TIGIT on cells (human, UniProt Q495A1 22-141)
T1 construct: also called Expi293 human TIGIT over-expressing cells
T1 sequence: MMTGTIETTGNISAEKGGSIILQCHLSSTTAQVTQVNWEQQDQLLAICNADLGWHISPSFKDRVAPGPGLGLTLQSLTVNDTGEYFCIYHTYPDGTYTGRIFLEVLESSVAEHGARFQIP
Assay: FACS titration of AF647-labelled mAb on human effector memory CD8+ T cells, Donor 322
pKd: −log10 of the molar value.
readout label: pKd

{"binder": "BM26 hIgG4 (antibody, V domains shown, benchmark anti-human TIGIT antibody, human IgG4 with S241P; also called BM26-H4; WO2016/028656A1 Clone 3106 as hIgG4) VH: EVQLQQSGPELVKPGSSVKMSCKASGYTFSSYVMHWVKQKPGQGLEWIGYIDPYNDGAKYNEKFKGKATLTSDKSSSTAYMELSSLTSEDSAVYYCARGGPYGWYFDVWGAGTTVTVSS VL: DIQMTQSPASLSASVGETVTITCRASEHIYSYLSWYQQKQGKSPQLLVYNAKTLAEGVPSRFSGSGSGTQFSLKINSLQPEDFGTYYCQHHFGSPLTFGAGTTLELKR", "readout label": "pKd", "quantitative readout": 8.85}
{"binder": "BM29 hIgG4 (antibody, V domains shown, benchmark anti-human TIGIT antibody, human IgG4 with S241P; also called BM29-H4; US2016/0176963A1 Clone 22G2 as hIgG4) VH: QVHLQESGPGLVKPSETLSLTCTVSGGSVSSGIYYWSWIRQPPGKGLEWIGYIYYSGSTNYNPSLKSRVTISVDTSKNQFSLKLSSVTAADTAVYYCARDYYVSGNYYNVDYYFFGVDVWGQGTTVTVSS VL: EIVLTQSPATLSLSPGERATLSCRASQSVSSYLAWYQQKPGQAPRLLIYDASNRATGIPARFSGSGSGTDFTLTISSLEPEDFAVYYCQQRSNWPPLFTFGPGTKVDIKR", "readout label": "pKd", "quantitative readout": 9.04}
{"binder": "CPA.9.083.H4(S241P) (antibody, human IgG4, V domains shown) VH: EVQLVETGGGLIQPGRSLRLSCAASGFTFSSYAMHWVRQAPGKGLEWVAVISYDGTPVYYADSVKGRFTISRDNSKNTLYLQMNSLRAEDTAVYYCARDPLPLHYYGMDVWGQGTTVTVSS VL: QSALTQPRSASGNPGQRVTISCSGSSSNMGRRPVNWYQQIPGTAPKLLIYSQNQRPSGVPDRFSGSQSGTSASLTISGLQSEDEAEYFCAVWDGDRRSLQLGGGTQLAVLG", "readout label": "pKd", "quantitative readout": 9.92}
